Each recorded value in this set is attributed to patent US20240270821A1.

ASSAYED SYSTEM: hGLP-1R (Homo sapiens, UniProt P43220)
Sequence (P43220 24-463): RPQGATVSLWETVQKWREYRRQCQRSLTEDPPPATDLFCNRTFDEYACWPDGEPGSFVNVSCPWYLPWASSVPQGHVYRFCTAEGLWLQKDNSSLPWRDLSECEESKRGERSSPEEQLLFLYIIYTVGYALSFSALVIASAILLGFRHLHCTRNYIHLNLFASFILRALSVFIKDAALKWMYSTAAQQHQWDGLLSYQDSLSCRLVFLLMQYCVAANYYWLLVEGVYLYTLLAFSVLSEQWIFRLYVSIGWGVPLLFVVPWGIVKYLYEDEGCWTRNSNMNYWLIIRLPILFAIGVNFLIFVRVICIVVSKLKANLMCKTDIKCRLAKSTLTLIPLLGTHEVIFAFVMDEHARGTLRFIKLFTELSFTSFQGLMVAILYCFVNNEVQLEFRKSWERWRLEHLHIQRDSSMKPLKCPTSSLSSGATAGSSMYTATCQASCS
PROTOCOL DESCRIPTION: Functional cAMP activation in the presence of 0.1% casein (no HSA);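 further: intracellular cAMP rise after 30 min at 37 °C read by HTRF, normalized between buffer only (0%) and maximal control ligand (100%), four-parameter variable-slope fit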
Type: cell-based
EXPERIMENTAL SETUP: in the presence of 0.1% casein (no HSA); geometric mean; read-out: Relative cAMP EC50, hGLP-1R
Starred links: 1 amine or outer side, 2 acyl side, 3 side chain; linkers in the order of their positions; H or OH if unused. Non-standard residues stand in square brackets, D forms with d. Groups on a side chain read outwards from the residue. *: point of attachment. C18 diacid = O=C(O)CCCCCCCCCCCCCCCCC(=O)*; αMePhe(2-F) = C[C@](N)(Cc1ccccc1F)C(=O)O; γGlu = O=C(O)[C@H](CCC(=O)[*:2])N[*:1]; αMe4Pal = C[C@](N)(Cc1ccncc1)C(=O)O; αMeY = C[C@](N)(Cc1ccc(O)cc1)C(=O)O; 4Pal = N[C@@H](Cc1ccncc1)C(=O)O; αMeL = CC(C)C[C@](C)(N)C(=O)O; αMeS = C[C@](N)(CO)C(=O)O; Orn = NCCC[C@H](N)C(=O)O; AEEA = NCCOCCOCC(=O)O; Aib = CC(C)(N)C(=O)O
# note: boundary value 1 nM maps to 0.0; EC50 below it maps to 1.0

{"columns": ["SUBSTANCE", "GROUP"],
 "data": [
  ["H-Y[Aib]QGTFTSD[4Pal]SQ[αMeL]LD[Orn]K([AEEA-γGlu-C18 diacid])AQ[αMe4Pal]AFIEYLIQ[Aib]GPSSGEPPPSGSEE-NH2 [Example 1096]", 0.0],
  ["H-Y[Aib]QGT[αMePhe(2-F)]TSD[4Pal][αMeS]I[αMeL]LD[Orn]K([γGlu-γGlu-C18 diacid])AQ[αMe4Pal]EFI[dE][αMeY]LVEGGPSSGEPPPSGE-NH2 [Example 1161]", 1.0],
  ["H-Y[Aib]QGTFTSD[4Pal]SQ[αMeL]LDKK([AEEA-γGlu-C18 diacid])AQ[αMe4Pal]AFIE[αMe4Pal]LIEGGPSSGAPPPSGSEE-NH2 [Example 954]", 0.0],
  ["H-Y[Aib]QGTFTSD[4Pal]SQ[αMeL]LDKK([AEEA-γGlu-C18 diacid])AQ[αMe4Pal]AFIEYLIE[Aib]GPSSGAPPPEGS-NH2 [Example 851]", 0.0],
  ["H-Y[Aib]QGTFTSD[4Pal]SK[αMeL]LDKK([AEEA-γGlu-C18 diacid])AQ[Aib]AFIEYLIEGGPSSGAPPPSGS-NH2 [Example 908]", 0.0]
]}
